pIC50: −log10 of the molar value.
pIC50 tested on UniProt P56817: recorded values
Sequence (P56817 46-501): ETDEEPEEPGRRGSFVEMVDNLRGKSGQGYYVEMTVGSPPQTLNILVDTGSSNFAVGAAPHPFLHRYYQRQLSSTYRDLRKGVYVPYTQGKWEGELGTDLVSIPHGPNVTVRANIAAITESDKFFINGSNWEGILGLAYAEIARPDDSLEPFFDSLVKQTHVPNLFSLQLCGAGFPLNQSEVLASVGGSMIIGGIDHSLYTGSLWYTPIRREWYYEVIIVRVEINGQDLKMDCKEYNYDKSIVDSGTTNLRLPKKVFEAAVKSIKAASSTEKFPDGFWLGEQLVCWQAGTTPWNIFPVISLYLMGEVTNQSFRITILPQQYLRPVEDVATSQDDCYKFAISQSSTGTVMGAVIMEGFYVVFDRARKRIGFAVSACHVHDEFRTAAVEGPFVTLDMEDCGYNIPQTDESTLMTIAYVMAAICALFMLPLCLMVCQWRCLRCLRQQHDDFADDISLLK

Solved cases (2 shown):
CN1C(=O)C(c2cc[nH]c2)(c2cccc(O)c2)N=C1N (stereo not shown) [Example 59] = < 6.00
CCC(=O)c1cc(C2(c3cccc(-c4cccnc4F)c3)N=C(N)N(C)C2=O)cn1CCCF (stereo not shown) [Example 152] = 7.00 to 8.00

Give the reported pIC50 for this molecule. CC(=O)Cc1cc([C@]2(c3cccc(-c4cccnc4F)c3)N=C(N)N(C)C2=O)cn1CCCF [Example 248] 7.00 to 8.00

Give the reported pIC50 for this molecule. CCOC(=O)c1cc(C2(c3ccc(F)c(-c4cccnc4F)c3)N=C(N)N(C)C2=O)cn1CC (stereo not shown) [Example 125] 7.00 to 8.00

Give the reported pIC50 for this molecule. COc1ncccc1-c1cc(C2(c3ccsc3)N=C(N)N(C)C2=O)ccc1F (stereo not shown) [Example 38] 6.00 to 6.96

Give the reported pIC50 for this molecule. CN1C(=O)C(c2cccc(-c3cccnc3F)c2)(c2cnn(CCC(C)(C)C)c2)N=C1N (stereo not shown) [Example 101] 7.00 to 8.00

Give the reported pIC50 for this molecule. COC(=O)c1cc([C@@]2(c3cccc(-c4cccnc4F)c3)N=C(N)N(C)C2=O)cn1CCF [257 B] 6.00 to 6.96

Give the reported pIC50 for this molecule. CC(C)OC(=O)c1cc(C2(c3ccc(F)c(-c4cccnc4F)c3)N=C(N)N(C)C2=O)cn1CCF (stereo not shown) [Example 124] 6.00 to 6.96

Give the reported pIC50 for this molecule. CC(C)OC(=O)c1cc(C2(c3ccc(F)c(-c4cncnc4)c3)N=C(N)N(C)C2=O)cn1CCF (stereo not shown) [Example 127] 6.00 to 6.96

Give the reported pIC50 for this molecule. COC(=O)c1cc([C@]2(c3ccc(F)c(-c4cncnc4)c3)N=C(N)N(C)C2=O)cn1CC(F)(F)F [258 A] 7.00 to 8.00

Give the reported pIC50 for this molecule. CC(C)CCn1cc(C2(c3cccc(-c4cncnc4)c3)N=C(N)N(C)C2=O)cn1 (stereo not shown) [Example 108] 7.00 to 8.00
